The measured values listed here are drawn from patent US10239887B2.

Biological target: human mAChR M4 (Homo sapiens, UniProt P08173)
Sequence (P08173 whole entry): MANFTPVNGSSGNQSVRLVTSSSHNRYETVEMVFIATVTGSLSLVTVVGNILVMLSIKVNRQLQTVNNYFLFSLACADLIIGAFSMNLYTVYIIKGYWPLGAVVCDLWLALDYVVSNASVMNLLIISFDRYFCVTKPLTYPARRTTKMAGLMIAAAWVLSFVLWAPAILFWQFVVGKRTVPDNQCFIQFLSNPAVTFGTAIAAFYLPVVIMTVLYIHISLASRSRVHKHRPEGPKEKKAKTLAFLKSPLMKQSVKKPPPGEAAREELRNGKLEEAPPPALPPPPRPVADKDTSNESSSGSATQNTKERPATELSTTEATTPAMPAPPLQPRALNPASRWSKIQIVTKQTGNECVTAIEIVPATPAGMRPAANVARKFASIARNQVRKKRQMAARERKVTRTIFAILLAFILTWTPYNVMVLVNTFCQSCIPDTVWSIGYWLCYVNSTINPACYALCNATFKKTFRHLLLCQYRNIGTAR
Experiment: mAChR M4 cell-based functional assay (calcium flux), human M4
Details: Human M4 EC50 (nM), Table 10; calcium flux, PAM activity with EC20 acetylcholine
MEASURED METRIC: EC50 (nM)

Solved entries (count: 4):
>>> df
                                   compound  measured_metric  reading_unit  test_value
0  Cc1nnc2sc3c(NCc4ccc(C(=O)NC5CC(F)(F)C5)cc4)ncnc3c2c1C             EC50            nM        59.2
1  Cc1nnc2sc3c(NCc4ccc(C(=O)NC5CCCC5)cc4)ncnc3c2c1C             EC50            nM         114
2  Cc1nnc2sc3c(NCc4ccc(-c5ccn(C)n5)cc4)ncnc3c2c1C             EC50            nM         851
3  Cc1ncc(CN2CC3(CC(Nc4ncnc5c4sc4nnc(C)c(C)c45)C3)C2)cn1             EC50            nM        1210

[I] Cc1nnc2oc3c(NC4CCC4)ncnc3c2c1C
[II] COc1c(F)cc(CNc2ncnc3c2oc2nnc(C)c(C)c23)cc1F
[III] Cc1nnc2sc3c(NCc4ccc(C(C)(C)O)c(F)c4)ncnc3c2c1C
Arrange items by their EC50 values in increasing order. // rank by listing labels in the order requested
III, II, I
(III: 255 nM, II: 378 nM, I: 1530 nM)
